Origin of values: ChEMBL document CHEMBL1201862

- EXPERIMENTAL TARGET: Protein skinhead-1 (Caenorhabditis elegans)
- Sequence (P34707 whole entry): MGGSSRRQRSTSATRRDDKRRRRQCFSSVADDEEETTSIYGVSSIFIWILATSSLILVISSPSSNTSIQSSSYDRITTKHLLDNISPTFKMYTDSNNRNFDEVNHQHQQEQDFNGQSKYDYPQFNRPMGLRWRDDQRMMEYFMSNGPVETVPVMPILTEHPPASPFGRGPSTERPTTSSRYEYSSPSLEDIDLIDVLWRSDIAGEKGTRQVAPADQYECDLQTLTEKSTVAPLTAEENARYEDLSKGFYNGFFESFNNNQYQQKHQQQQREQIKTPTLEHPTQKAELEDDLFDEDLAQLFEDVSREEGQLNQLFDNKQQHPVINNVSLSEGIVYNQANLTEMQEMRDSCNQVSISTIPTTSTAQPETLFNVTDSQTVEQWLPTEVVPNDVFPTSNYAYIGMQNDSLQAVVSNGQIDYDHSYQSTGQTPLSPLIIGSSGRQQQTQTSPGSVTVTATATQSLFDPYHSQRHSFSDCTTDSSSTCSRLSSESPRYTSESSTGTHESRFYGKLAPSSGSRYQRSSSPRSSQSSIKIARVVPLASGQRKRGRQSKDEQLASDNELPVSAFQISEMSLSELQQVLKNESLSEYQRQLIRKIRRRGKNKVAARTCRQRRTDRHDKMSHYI
- Format: functional
The source made the active and inactive calls.
The categories you may choose from are class 1 (active), class 0 (inactive)

CC(=O)Nc1nc2ccc(Br)cc2s1 ... class 0
Cc1cc2ccccc2n1CCNC(=O)C1CCCC1 ... class 0
COc1cccc(NC(=O)C2CCCN(c3ncnc4c3nc3n4CCCCC3)C2)c1 (stereo not given) ... class 0

Hi, do you know how N#Cc1cncc(C#Cc2ccccc2)c1 came out in this test?
class 1

----------
- EXPERIMENTAL TARGET: Phospholipase D2 (Homo sapiens)
- Sequence (O14939 whole entry): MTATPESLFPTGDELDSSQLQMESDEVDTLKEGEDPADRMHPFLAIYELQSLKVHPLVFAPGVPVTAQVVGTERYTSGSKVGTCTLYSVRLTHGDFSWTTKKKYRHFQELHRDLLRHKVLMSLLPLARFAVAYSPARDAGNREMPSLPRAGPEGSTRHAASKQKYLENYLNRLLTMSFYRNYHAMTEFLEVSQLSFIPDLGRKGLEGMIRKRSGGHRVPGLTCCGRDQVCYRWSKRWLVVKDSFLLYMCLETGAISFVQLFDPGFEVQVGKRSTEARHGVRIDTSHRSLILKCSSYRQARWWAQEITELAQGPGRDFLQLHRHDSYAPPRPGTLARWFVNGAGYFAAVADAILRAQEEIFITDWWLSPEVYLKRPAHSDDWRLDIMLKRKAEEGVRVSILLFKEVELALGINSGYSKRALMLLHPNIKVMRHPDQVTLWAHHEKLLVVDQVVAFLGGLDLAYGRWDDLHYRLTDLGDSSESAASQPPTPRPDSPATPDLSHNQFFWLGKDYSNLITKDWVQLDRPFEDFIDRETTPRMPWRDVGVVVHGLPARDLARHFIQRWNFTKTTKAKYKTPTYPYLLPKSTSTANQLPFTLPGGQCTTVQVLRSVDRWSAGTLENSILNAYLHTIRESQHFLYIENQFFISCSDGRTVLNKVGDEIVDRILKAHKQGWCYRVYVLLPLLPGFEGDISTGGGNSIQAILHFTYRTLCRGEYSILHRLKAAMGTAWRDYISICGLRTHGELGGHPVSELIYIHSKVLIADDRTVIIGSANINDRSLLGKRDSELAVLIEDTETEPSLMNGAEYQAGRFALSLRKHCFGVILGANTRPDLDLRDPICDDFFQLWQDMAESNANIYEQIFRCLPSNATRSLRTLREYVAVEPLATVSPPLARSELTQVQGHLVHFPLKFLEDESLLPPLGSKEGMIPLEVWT
- EXPERIMENTAL PROTOCOL: PLD2 inhibitor potency in cells, dose response (AID 602147);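 note: cellular assay in HEK293 cells overexpressing GFP-tagged PLD2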
- Assay type: functional
Active and inactive are the calls of the source.
Listed below: IC50 values for each entry.

Use the examples below as a reference point.
CC(C)[C@@H](CN1CCC2(CC1)C(=O)NCN2c1ccccc1)NC(=O)c1cc2ccccc2[nH]1 ... 29 nM (active)
O=C(NCCN1CCC(n2c(=O)[nH]c3cc(I)ccc32)CC1)C1CC1c1ccccc1 (stereo not given) ... 345 nM (active)

For the compound C[C@@H](CN1CCC(n2c(=O)[nH]c3ccccc32)CC1)NC(=O)c1cccnc1 , what IC50 is on record?
14000 nM (active)

Can you look up the measured IC50 of C[C@H](CN1CCC(n2c(=O)[nH]c3cc(Cl)ccc32)CC1)NC(=O)c1cc2ccccc2[nH]1 for me?
260 nM (active)

Report IC50 for C[C@@H](CN1CCC2(CC1)C(=O)NCN2c1ccc(F)c(F)c1)NC(=O)c1cnc2ccccc2c1 please.
76 nM (active)
